assayedTarget: T1, AAV8
T1 construct: also called adeno-associated virus serotype 8
methodNotes: SPR, AAV on CM5 chip;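 further: surface plasmon resonance with AAV amine-coupled to the chip as ligand, nanobodies injected as analyte over a concentration series, rate constants and affinity fitted from binding curves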
hey, just use true if measured koff is less than 0.0005 s⁻¹, otherwise false

// below: answered binders
| binder | classification |
| --- | --- |
| A4-036 (VHH) VHH: VQLQESGGGLAQAGGSLRLSCAASGRGFSINTMGWYRQAPGKQRELVAAVTRGGTTNYADSVKGRFTISRDNAKNTVYLQMNSLRPEDTAVYYCHVDEVRQSSWTTSNLWGQGTQVTVSS | false |
| A4-009 (VHH) VHH: VQLQESGGGLAQPGGSLRLSCAASGSRFSINTMGWYRQAPGKQREFVAAVTRGGSTNYAGSVKGRFTISRDNAKNTVYLQMNTLRPEDTAVYYCHVDEVRQSSWTTSNIWGQGTQVTVSS | false |
| A4-034 (VHH) VHH: VQLQESGGGLVQPGGSLRLSCAASGRGFSINTMGWYRQAPGKQRELVAAVTRGGTTNYADSVKGRFTISRDNAKNTVYLQMNSLRPEDTAVYYCHVDEVRQSSWTTSNLWGQGTQVTVSS | true |
| A4-019 (VHH) VHH: VQLQESGGGLVQAGGSLRLSCAASGSTFSINTMGWYRQAPGKQRELVATITRGGSTNYADSVKGRFTISRDNAKNTVYLQMNSLRPEDTAVYYCHVDEVRQSSWTTSNIWGQGTQVTVSS | false |
| A4-045 (VHH) VHH: VQLQESGGGLVQPGGSLRLSCAASGSSFSINTMGWYRQAPGKQRELVAAVTRGGVTNYADSVKGRFTISRDNAKNTVYLQMNSLRPEDTAVYYCHVDEVRQSSWTTSNLWGQGTQVTVSS | true |

Okay, next one:
stdin: Answer whether the binder A4-018 (VHH) VHH: VQLQESGGGLVQAGGSLRLSCAASGSRFSINTMGWYRQAPGKQREFVATVTRGGNTNYAESVKGRFTISRDNAKNTVYLQMNSLRPEDTAVYYCHVDEVRDSSWTTSNIWGQGTQVTVSS has koff strictly less than 0.0005 s⁻¹
stdout: false
